# Assay notes: Pharmacokinetic parameters following intravenous administration in rats
# Format: in vivo, male Wistar rats
# Condition details: male, Wistar, rat, plasma, intravenous administration of 0.3 mg/kg
Metric name: MRT (h)
Give the number; h is assumed, so skip it.

Solved entries:
• CC1(C)C(=O)Nc2nc(-c3nn(Cc4ncccc4F)c4ncc(F)cc34)nnc21 [Example 2] = 7.9
• CC1(C)C(=O)Nc2nc(-c3nn(Cc4ncccc4F)c4ncc(F)cc34)nc(N)c21 [Example 3] = 1.3

Okay, next one:
Input line: // lookup MRT for CC1(C)C(=O)Nc2nc(-c3nn(Cc4ncccc4F)c4ncc(F)cc34)ncc21 [Example 6]
Output line: 5.6
